Biological target: Torsin-1A-interacting protein 2 (Homo sapiens)
Experiment: LULL1 binders on small-molecule microarray, primary screen, cell lysate, human LULL1 lysate, 635/667 nm fluorescence (AID 1092);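 note: probe is lysate of COS7 cells overexpressing human LULL1; score merges per-feature 667 nm fluorescence with signal-to-noise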
Conditions: hLULL1 lysate binding, 635 nm fluorescence, higher = more signal
# composite z-score per record follows

Worked examples follow.
>>> assay_result("COCCCNC(=O)[C@@]1(C)c2ccccc2C(=O)N(Cc2ccc(OC(F)(F)F)cc2)[C@H]1c1ccc(CO)cc1")
-0.0493
>>> assay_result("CCOC(=O)NN=C1C[C@@H](O)[C@@H](O)[C@@H]2[C@@H]3C(=O)N(C[C@@H]4CCCO4)C(=O)[C@@H]3CC[C@@H]12")
0.375
>>> assay_result("C[C@@H]1CCC2C(=O)N(Cc3ccccc3)C[C@@H](O)CN2[C@H]1c1ccc(Br)cc1 (some centres undefined)")
1.5

API: the following record is the query input.
Quick one: composite z-score of c1ccc(C2NCCc3c2[nH]c2ccccc32)cc1 (centres undefined) ?
0.872

###

Experiment: PSAC antagonists in infected red cells, primary screen, cell-based, P. falciparum Indochina, OD700, 1 h (AID 1154)
Details: P. falciparum Indochina infected RBC osmotic lysis, higher = more signal, called active from +8 up or from −8 down
# z-score per record follows
// no unit, no text: just the number

Worked examples follow.
>>> assay_result("CC(C)CON=C1[C@H]2CCn3c(=O)n(-c4ccccc4)c(=O)n3[C@H]2[C@H](O)[C@@H]2O[C@H]12")
0.175
>>> assay_result("NC(=O)NCC#Cc1ccc2c(c1)[C@]1(C(=O)N2)[C@H](c2ccc(O)cc2)N2[C@H](c3ccccc3)[C@H](c3ccccc3)OC(=O)[C@H]2[C@@H]1C(=O)N1CCCCCCC1")
0.578

API: the following record is the query input.
Quick one: z-score of `CO[C@@H]1COC(=O)CC=C[C@@H](C)[C@@H]2C=C[C@H](O)[C@@H](COC(=O)[C@H](C)NC(=O)CC=C[C@H]1C)O2` ?
-0.761

###

# z-score per record follows
Assay: basal MM1S mitochondrial membrane potential changes, profiling panel, cell-based, JC-1 fluorescence, 24 h, 100 nL compound (AID 1170); note: test concentration not given here
Conditions: higher = more signal
// no unit, no text: just the number

Worked examples follow.
>>> assay_result("C[C@@H](c1ccccc1)N1C(=O)[C@H]2[C@H]3[C@H](O)[C@H](O)CC(=NNC(=O)OCc4ccccc4)[C@H]3CC[C@H]2C1=O")
0.00989
>>> assay_result("O=C1[C@H]2[C@H]3[C@H](O)[C@H](O)CC(=NOC[C@@H](O)COCc4ccco4)[C@H]3CC[C@H]2C(=O)N1C1CCCCC1")
-0.611

API: the following record is the query input.
Quick one: z-score of `O=C1[C@H]2[C@H]3[C@H](O)[C@H](O)CC(=NOCc4ccccc4)[C@H]3CC[C@H]2C(=O)N1c1cccc(Oc2ccccc2)c1` ?
-0.721

###

Experiment: binders of probe aFGF10 on microarray, primary screen, stem cell growth factor project, biochemical, small-molecule microarray, fluorescence 635/667 (AID 1071);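 note: score merges 667 nm spot intensity and signal to noise from triplicate slides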
Conditions: higher = more signal
Outcome: class 1 for composite z-score of at least 0.5; class 0 for anything lower.

>>> group("O=C1C2C=CC(C(O)c3ccc([N+](=O)[O-])cc3)N(Nc3ccc([N+](=O)[O-])cc3)C2C(=O)N1c1ccccc1 (centres undefined)")
"class 1"
>>> group("O=C1[C@H]2[C@H]3[C@H](O)[C@H](O)CC(=NO[C@@H]4O[C@H](CO)[C@@H](O)[C@H](O)[C@H]4O)[C@@H]3CC[C@H]2C(=O)N1Cc1ccccc1")
"class 0"
>>> group("CN1C(=O)C2C=CC(C(O)c3ccc(I)cc3)N(NC(=O)OC(C)(C)C)C2C1=O (centres undefined)")
"class 1"
>>> group("CCN1C(=O)[C@H]2[C@H]3[C@H](O)[C@H](O)CC(=NOCc4ccccc4)[C@H]3CC[C@H]2C1=O")
"class 1"
>>> group("CCOC(=O)NN=C1C[C@@H](O)[C@@H](O)[C@@H]2[C@@H]3C(=O)N(C4CCCCC4)C(=O)[C@@H]3CC[C@H]12")
"class 0"

Record `CCCNC(=O)[C@@H]1c2ccccc2C(=O)N(Cc2ccccc2Cl)[C@H]1c1ccc(CO)cc1` ; criterion: composite z-score no lower than 0.5. Met?
class 1

Record `CO[C@H]1COC(=O)[C@H](C)NC(=O)[C@@H](C)COC(=O)CC=C[C@@H]1C` ; criterion: composite z-score no lower than 0.5. Met?
class 0

Record `CC[C@@H](c1ccccc1)n1c(=O)n2n(c1=O)[C@H]1[C@H](O)[C@@H]3O[C@@H]3C(=NOCC=C(C)CCC=C(C)C)[C@H]1CC2` ; criterion: composite z-score no lower than 0.5. Met?
class 0

Record `O=C1O[C@@H](c2ccccc2)[C@@H](c2ccccc2)N2[C@@H](c3ccc(OCCO)cc3)[C@]3(C(=O)Nc4ccccc43)[C@@H](C(=O)N3CCN(c4ncccn4)CC3)[C@H]12` ; criterion: composite z-score no lower than 0.5. Met?
class 0

Record `NC(=O)NCC#Cc1ccc2c(c1)[C@]1(C(=O)N2)[C@H](c2ccc(O)cc2)N2[C@H](c3ccccc3)[C@H](c3ccccc3)OC(=O)[C@H]2[C@@H]1C(=O)N1CCCCCCC1` ; criterion: composite z-score no lower than 0.5. Met?
class 0

Record `CC(C)[Si]1(C(C)C)O[C@@H](c2ccccc2)c2cc(C3CC3)nc(-c3ccccc3)c21` ; criterion: composite z-score no lower than 0.5. Met?
class 0

###

# z-score per record follows
Molecular target: NADPH oxidase 5 (Homo sapiens) (UniProt Q96PH1)
Sequence (Q96PH1 whole entry, looked up): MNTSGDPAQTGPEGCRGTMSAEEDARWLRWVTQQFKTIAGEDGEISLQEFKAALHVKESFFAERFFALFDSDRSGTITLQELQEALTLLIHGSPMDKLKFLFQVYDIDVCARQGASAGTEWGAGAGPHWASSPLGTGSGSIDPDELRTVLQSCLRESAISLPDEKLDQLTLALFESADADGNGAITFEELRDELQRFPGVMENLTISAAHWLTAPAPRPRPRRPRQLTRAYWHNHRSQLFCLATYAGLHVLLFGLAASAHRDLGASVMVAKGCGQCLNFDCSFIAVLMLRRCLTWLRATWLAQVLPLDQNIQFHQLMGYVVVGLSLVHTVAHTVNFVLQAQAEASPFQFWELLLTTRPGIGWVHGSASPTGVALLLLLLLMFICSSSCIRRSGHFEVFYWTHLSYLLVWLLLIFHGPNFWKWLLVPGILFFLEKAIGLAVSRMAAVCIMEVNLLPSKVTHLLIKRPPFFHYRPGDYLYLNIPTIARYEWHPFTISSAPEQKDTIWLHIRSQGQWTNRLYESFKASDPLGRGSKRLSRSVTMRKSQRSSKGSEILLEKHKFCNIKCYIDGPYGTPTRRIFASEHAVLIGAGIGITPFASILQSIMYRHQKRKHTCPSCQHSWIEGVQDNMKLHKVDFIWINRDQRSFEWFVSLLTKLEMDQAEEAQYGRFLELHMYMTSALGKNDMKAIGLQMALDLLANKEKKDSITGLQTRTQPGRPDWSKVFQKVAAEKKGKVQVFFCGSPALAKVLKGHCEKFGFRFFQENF
Assay: NOX5-dependent H2O2 signal modulators, primary screen, NOX inhibitor project, cell-based, HEK293-NOX5, Amplex Red fluorescence (AID 1161)
Conditions: HEK293-NOX5, ionomycin, 45 min, higher = more signal
// no unit, no text: just the number

>>> assay_result("COc1ccc(O[C@H]2C=C[C@@H](c3ccccc3)O[C@@H]2COC(=O)CCC(C)=NOCC[C@@H]2C=C[C@H](OC(C)=O)[C@@H](COC(C)=O)O2)cc1")
-2.19
>>> assay_result("COC(=O)CC1OC1[C@H](C)[C@@H](OC)C(C)C (stereo partly drawn)")
-1.45

API: the following record is the query input.
Quick one: z-score of `CC(CCC(=O)OC[C@H]1O[C@H](C#Cc2ccccc2)C=C[C@@H]1Oc1ccc(C)cc1)=NOC[C@@H](O)[C@H]1O[C@@H]2OC(C)(C)O[C@@H]2[C@H]1O` ?
-1.2

###

# composite z-score per record follows
Target: Fibroblast growth factor 10 (Homo sapiens)
Assay: FGF10 binders on small-molecule microarrays, primary screen, biochemical, small-molecule microarray, 635 nm fluorescence (AID 1102)
Conditions: FGF10 binding, fluorescence 635 nm, higher = more signal
// no unit, no text: just the number

>>> assay_result("COC(=O)[C@H](C)NC(=O)CCC1CC(OC(=O)NCc2ccc3c(c2)OCO3)CC2(CCCC(COC(=O)NCCOc3ccccc3)O2)O1 (some centres not stated)")
0.658
>>> assay_result("NC(=O)NCC#Cc1ccc2c(c1)[C@]1(C(=O)N2)[C@H](c2ccc(O)cc2)N2[C@H](c3ccccc3)[C@H](c3ccccc3)OC(=O)[C@H]2[C@@H]1C(=O)N1CCCCCCC1")
0.593
>>> assay_result("C[C@@H](c1ccccc1)N1C(=O)[C@H]2[C@H]3[C@H](O)C=CC(=O)[C@@H]3CC[C@H]2C1=O")
0.373
>>> assay_result("CC(C)C[C@@H]1NC(=O)[C@H]2C[C@@H](C(=O)NCCCCCCN(C)C)[C@@H](c3cccc(OCCO)c3)N2C1=O")
1.01
>>> assay_result("CC(C)=NOCc1cccc(-c2cc(-c3ccccc3)no2)c1")
0.637

Quick one: composite z-score of `O=C1[C@H]2[C@H]3[C@H](O)[C@H](O)CC(=NO[C@@H]4O[C@H](CO)[C@@H](O)[C@H](O)[C@H]4O)[C@@H]3CC[C@H]2C(=O)N1Cc1ccccc1` ?
0.503

Quick one: composite z-score of `CC=CC1=C(CO)[C@H](O)[C@H]2O[C@H]2[C@H]1O` ?
0.805

Quick one: composite z-score of CN1C(=O)C2C=CC(C(O)c3ccc(Br)cc3)N(N(c3ccccc3)c3ccccc3)C2C1=O (configuration not stated) ?
-0.14

Quick one: composite z-score of COc1ccc(O[C@H]2C=C[C@@H](c3ccccc3)O[C@@H]2COC(=O)CCC(C)=NOC(C)CN2CCCCc3nc(C)c(C)cc32)cc1 (some centres not stated) ?
-0.154

Quick one: composite z-score of `CC(C)=CCCC(C)=CCON=C1C[C@@H](O)[C@@H](O)[C@@H]2[C@@H]3C(=O)N(C[C@@H]4CCCO4)C(=O)[C@@H]3CC[C@@H]12` ?
1.33

Quick one: composite z-score of `CC(C)CON=C1C[C@@H](O)[C@@H](O)[C@@H]2[C@@H]3C(=O)N([C@@H](C)c4ccccc4)C(=O)[C@@H]3CC[C@H]12` ?
1.07

Quick one: composite z-score of `CC(CCC(=O)OC[C@H]1O[C@H](C#Cc2ccccc2)C=C[C@@H]1Oc1ccc(C)cc1)=NOC[C@@H](O)COCc1ccco1` ?
-3.07
